# Tested on: HCI-016 (organoid from a triple-negative breast cancer xenograft)
# ASSAY NOTES: CTG-3D luminescence at 96 h relative to day-0 seeding control (ratio to day 0); higher = more growth / less cytotoxicity; PDxO 3D drug screen, 96 h, CTG-3D normalised to day-0 seeding control.
# COND: 625 fM; days in culture: 172
READOUT LABEL: CTG-3D luminescence at 96 h

[
  {
    "STRUCTURE SMILES": "C=CCn1c(=O)c2cnc(Nc3ccc(N4CCN(C)CC4)cc3)nc2n1-c1cccc(C(C)(C)O)n1",
    "READOUT NUMBER": 1.62
  },
  {
    "STRUCTURE SMILES": "NC1(C(=O)N[C@@H](CCO)c2ccc(Cl)cc2)CCN(c2nc[nH]c3nccc2-3)CC1",
    "READOUT NUMBER": 1.75
  },
  {
    "STRUCTURE SMILES": "COc1cccc2c1C(=O)c1c(O)c3c(c(O)c1C2=O)C[C@@](O)(C(=O)CO)C[C@@H]3O[C@H]1C[C@H](N)[C@H](O)[C@H](C)O1",
    "READOUT NUMBER": 1.97
  },
  {
    "STRUCTURE SMILES": "NC(=O)c1cccc2cn(-c3ccc([C@@H]4CCCNC4)cc3)nc12",
    "READOUT NUMBER": 1.66
  }
]

---

# Tested on: HCI-011.E2 (organoid from an ER-positive breast cancer xenograft)
# ASSAY NOTES: CTG-3D luminescence at 96 h relative to day-0 seeding control (ratio to day 0); higher = more growth / less cytotoxicity; PDxO 3D drug screen (set 2), 96 h, CTG-3D normalised to day-0 seeding control.
# COND: 625 fM
READOUT LABEL: CTG-3D luminescence at 96 h

[
  {
    "STRUCTURE SMILES": "CCOc1ccn(-c2ccc(F)cc2)c(=O)c1C(=O)Nc1ccc(Oc2ccnc(N)c2Cl)c(F)c1",
    "READOUT LABEL": "CTG-3D luminescence at 96 h",
    "RESULT": 2.23
  },
  {
    "STRUCTURE SMILES": "Cc1c(CN2CCN(C(=O)[C@H](C)O)CC2)sc2c(N3CCOCC3)nc(-c3cnc(N)nc3)nc12",
    "READOUT LABEL": "CTG-3D luminescence at 96 h",
    "RESULT": 1.89
  },
  {
    "STRUCTURE SMILES": "C[C@@H](Nc1cc(F)cc(F)c1)c1cc(C(=O)N(C)C)cc2c(=O)cc(N3CCOCC3)oc12",
    "READOUT LABEL": "CTG-3D luminescence at 96 h",
    "RESULT": 2.13
  },
  {
    "STRUCTURE SMILES": "CS(=O)(=O)CCNCc1ccc(-c2ccc3ncnc(Nc4ccc(OCc5cccc(F)c5)c(Cl)c4)c3c2)o1",
    "READOUT LABEL": "CTG-3D luminescence at 96 h",
    "RESULT": 2.23
  }
]

---

# Test system: HCI-005.E2 (organoid from a breast cancer xenograft with a HER2-positive history)
# ASSAY NOTES: CTG-3D luminescence at 96 h relative to day-0 seeding control (ratio to day 0); higher = more growth / less cytotoxicity; PDxO 3D drug screen (set 2), 96 h, CTG-3D normalised to day-0 seeding control.
# COND: 1 µM
# maps each entry to its CTG-3D luminescence at 96 h

[
  {
    "COMPOUND": "COc1cccc2c1C(=O)c1c(O)c3c(c(O)c1C2=O)C[C@@](O)(C(=O)CO)C[C@@H]3O[C@H]1C[C@H](N)[C@@H](O)[C@H](C)O1 [epirubicin]",
    "MEASURED TARGET": "HCI-005.E2",
    "CTG-3D luminescence at 96 h": 0.0317
  },
  {
    "COMPOUND": "CCOc1ccn(-c2ccc(F)cc2)c(=O)c1C(=O)Nc1ccc(Oc2ccnc(N)c2Cl)c(F)c1",
    "MEASURED TARGET": "HCI-005.E2",
    "CTG-3D luminescence at 96 h": 2.59
  },
  {
    "COMPOUND": "C[C@@H](Nc1cc(F)cc(F)c1)c1cc(C(=O)N(C)C)cc2c(=O)cc(N3CCOCC3)oc12",
    "MEASURED TARGET": "HCI-005.E2",
    "CTG-3D luminescence at 96 h": 2.24
  },
  {
    "COMPOUND": "CC(C)n1nc(-c2ccc3oc(N)nc3c2)c2c(N)ncnc21",
    "MEASURED TARGET": "HCI-005.E2",
    "CTG-3D luminescence at 96 h": 0.685
  }
]

---

# Test system: HCI-025 (organoid from a breast cancer xenograft)
# ASSAY NOTES: CTG-3D luminescence at 96 h relative to day-0 seeding control (ratio to day 0); higher = more growth / less cytotoxicity; PDxO 3D drug screen, 96 h, CTG-3D normalised to day-0 seeding control.
# COND: 12.5 pM; days in culture: 209
READOUT LABEL: CTG-3D luminescence at 96 h

[
  {
    "COMPOUND": "CCN1CCN(Cc2ccc(Nc3ncc(F)c(-c4cc(F)c5nc(C)n(C(C)C)c5c4)n3)nc2)CC1 [abemaciclib]",
    "READOUT NUMBER": 2.03
  },
  {
    "COMPOUND": "NC(=O)Nc1cc(-c2cccc(F)c2)sc1C(=O)N[C@H]1CCCNC1 [AZD7762]",
    "READOUT NUMBER": 1.54
  },
  {
    "COMPOUND": "CS(=O)(=O)c1ccc(C(=O)Nc2ccc(Cl)c(-c3ccccn3)c2)c(Cl)c1 [vismodegib]",
    "READOUT NUMBER": 1.85
  },
  {
    "COMPOUND": "O=C(/C=C/c1cccnc1)NCCCCC1CCN(C(=O)c2ccccc2)CC1 [FK866]",
    "READOUT NUMBER": 2.08
  },
  {
    "COMPOUND": "NC(=O)c1cccc2cn(-c3ccc([C@@H]4CCCNC4)cc3)nc12 [niraparib]",
    "READOUT NUMBER": 1.9
  },
  {
    "COMPOUND": "CCc1c2c(nc3ccc(O)cc13)-c1cc3c(c(=O)n1C2)COC(=O)[C@]3(O)CC [SN-38]",
    "READOUT NUMBER": 1.97
  },
  {
    "COMPOUND": "C[C@H](NC(=O)CCC(F)(F)F)C(=O)N[C@@H]1C(=O)N(CCO)c2ncccc2-c2ccccc21 [crenigacestat]",
    "READOUT NUMBER": 2.02
  },
  {
    "COMPOUND": "CNC(=O)c1cccc(-c2ccc3c(N4CCOC[C@@H]4C)nc(N4CCOC[C@@H]4C)nc3n2)c1 [vistusertib]",
    "READOUT NUMBER": 1.74
  },
  {
    "COMPOUND": "Cc1cc(Nc2ncc(Cl)c(Nc3ccccc3S(=O)(=O)C(C)C)n2)c(OC(C)C)cc1C1CCNCC1 [ceritinib]",
    "READOUT NUMBER": 1.92
  }
]

---

# System: HCI-010 (organoid from a breast cancer xenograft)
# ASSAY NOTES: CTG-3D luminescence at 96 h relative to day-0 seeding control (ratio to day 0); higher = more growth / less cytotoxicity; PDxO 3D drug screen, 96 h, CTG-3D normalised to day-0 seeding control.
# COND: 0.005 µM; days in culture: 103
READOUT LABEL: CTG-3D luminescence at 96 h

[
  {
    "MOLECULE": "Cc1cc(Nc2ncc(Cl)c(Nc3ccccc3S(=O)(=O)C(C)C)n2)c(OC(C)C)cc1C1CCNCC1 [ceritinib]",
    "MEASURED TARGET": "HCI-010",
    "READOUT LABEL": "CTG-3D luminescence at 96 h",
    "READOUT NUMBER": 3.35
  },
  {
    "MOLECULE": "COc1cccc2c1C(=O)c1c(O)c3c(c(O)c1C2=O)C[C@@](O)(C(=O)CO)C[C@@H]3O[C@H]1C[C@H](N)[C@H](O)[C@H](C)O1 [doxorubicin]",
    "MEASURED TARGET": "HCI-010",
    "READOUT LABEL": "CTG-3D luminescence at 96 h",
    "READOUT NUMBER": 3.69
  },
  {
    "MOLECULE": "Cc1nc(-c2cn3c(n2)-c2ccc(-c4cnn(C(C)(C)C(N)=O)c4)cc2OCC3)n(C(C)C)n1 [taselisib]",
    "MEASURED TARGET": "HCI-010",
    "READOUT LABEL": "CTG-3D luminescence at 96 h",
    "READOUT NUMBER": 3.45
  },
  {
    "MOLECULE": "C=CC(=O)N1CCC[C@@H](n2nc(-c3ccc(Oc4ccccc4)cc3)c3c(N)ncnc32)C1 [ibrutinib]",
    "MEASURED TARGET": "HCI-010",
    "READOUT LABEL": "CTG-3D luminescence at 96 h",
    "READOUT NUMBER": 3.54
  }
]
